Test: Solubility experiment in different media, thermodynamic solubility at 37°C
Assay type: physicochemical
Settings: thermodynamic from solid; medium Fe (fed-state simulated intestinal fluid, FeSSIF), 37° C., 24 hours, thermodynamic solubility
outcome-measure: solubility at 24 h (µg/mL)
Give the number; µg/mL is assumed, so skip it.

[in] Item under review: CCS(=O)(=O)O.C[C@H](Nc1ccc2c(c1)OCCn1cc(N3C(=O)SC[C@H]3C(F)F)nc1-2)C(N)=O [crystal form A of ethanesulfonate salt] . Reported solubility at 24 h?
[out] 163

---

Assay: Solubility experiment in different media, thermodynamic solubility at 37°C
Assay type: physicochemical
Conditions: medium of pH 6, aqueous buffer, thermodynamic from solid; medium pH 6, 37° C., 24 hours, thermodynamic solubility
outcome-measure: solubility at 24 h (µg/mL)
Give the number; µg/mL is assumed, so skip it.

[in] Item under review: CCS(=O)(=O)O.C[C@H](Nc1ccc2c(c1)OCCn1cc(N3C(=O)SC[C@H]3C(F)F)nc1-2)C(N)=O [crystal form A of ethanesulfonate salt] . Reported solubility at 24 h?
[out] 5

---

Target: PI3Kγ (Homo sapiens, UniProt P48736)
Sequence (P48736 whole entry): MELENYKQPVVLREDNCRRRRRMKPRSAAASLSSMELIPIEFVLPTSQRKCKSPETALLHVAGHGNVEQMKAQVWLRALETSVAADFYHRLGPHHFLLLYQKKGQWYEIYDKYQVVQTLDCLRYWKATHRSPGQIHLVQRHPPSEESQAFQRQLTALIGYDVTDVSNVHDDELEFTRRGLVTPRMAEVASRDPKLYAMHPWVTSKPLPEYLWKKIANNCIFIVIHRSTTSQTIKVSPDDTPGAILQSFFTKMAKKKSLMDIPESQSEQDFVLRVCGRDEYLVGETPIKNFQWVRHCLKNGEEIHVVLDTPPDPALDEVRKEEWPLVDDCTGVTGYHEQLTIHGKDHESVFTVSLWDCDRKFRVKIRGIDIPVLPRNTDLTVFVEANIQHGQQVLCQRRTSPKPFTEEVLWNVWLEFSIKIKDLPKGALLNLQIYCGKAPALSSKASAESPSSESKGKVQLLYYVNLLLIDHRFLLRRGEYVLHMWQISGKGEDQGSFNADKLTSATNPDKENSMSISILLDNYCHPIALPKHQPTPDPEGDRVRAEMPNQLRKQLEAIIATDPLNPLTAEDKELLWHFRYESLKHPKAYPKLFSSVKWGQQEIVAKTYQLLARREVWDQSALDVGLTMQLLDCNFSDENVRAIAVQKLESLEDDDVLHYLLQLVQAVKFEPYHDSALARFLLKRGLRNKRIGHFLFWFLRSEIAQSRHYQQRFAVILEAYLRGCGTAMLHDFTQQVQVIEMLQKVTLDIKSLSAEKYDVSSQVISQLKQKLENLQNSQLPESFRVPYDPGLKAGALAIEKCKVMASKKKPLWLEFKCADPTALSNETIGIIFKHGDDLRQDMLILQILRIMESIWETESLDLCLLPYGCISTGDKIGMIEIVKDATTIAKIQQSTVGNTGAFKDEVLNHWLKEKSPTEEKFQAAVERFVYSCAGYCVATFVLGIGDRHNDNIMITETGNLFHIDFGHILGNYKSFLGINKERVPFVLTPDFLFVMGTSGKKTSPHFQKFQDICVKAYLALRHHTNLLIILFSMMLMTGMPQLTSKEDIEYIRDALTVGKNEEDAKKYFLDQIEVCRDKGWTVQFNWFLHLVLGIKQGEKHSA
outcome-measure: pIC50
Expect pIC50 as a plain number equal to -log10 of the molar concentration.

[in] Item under review: C[C@H](Nc1ccc2c(c1)SCCn1cc(N3C(=O)OC[C@H]3C(F)F)nc1-2)C(N)=O [Example 62] . Reported pIC50?
[out] 7.30

---

Target: PI3Kβ (Homo sapiens, UniProt P42338)
Sequence (P42338 whole entry): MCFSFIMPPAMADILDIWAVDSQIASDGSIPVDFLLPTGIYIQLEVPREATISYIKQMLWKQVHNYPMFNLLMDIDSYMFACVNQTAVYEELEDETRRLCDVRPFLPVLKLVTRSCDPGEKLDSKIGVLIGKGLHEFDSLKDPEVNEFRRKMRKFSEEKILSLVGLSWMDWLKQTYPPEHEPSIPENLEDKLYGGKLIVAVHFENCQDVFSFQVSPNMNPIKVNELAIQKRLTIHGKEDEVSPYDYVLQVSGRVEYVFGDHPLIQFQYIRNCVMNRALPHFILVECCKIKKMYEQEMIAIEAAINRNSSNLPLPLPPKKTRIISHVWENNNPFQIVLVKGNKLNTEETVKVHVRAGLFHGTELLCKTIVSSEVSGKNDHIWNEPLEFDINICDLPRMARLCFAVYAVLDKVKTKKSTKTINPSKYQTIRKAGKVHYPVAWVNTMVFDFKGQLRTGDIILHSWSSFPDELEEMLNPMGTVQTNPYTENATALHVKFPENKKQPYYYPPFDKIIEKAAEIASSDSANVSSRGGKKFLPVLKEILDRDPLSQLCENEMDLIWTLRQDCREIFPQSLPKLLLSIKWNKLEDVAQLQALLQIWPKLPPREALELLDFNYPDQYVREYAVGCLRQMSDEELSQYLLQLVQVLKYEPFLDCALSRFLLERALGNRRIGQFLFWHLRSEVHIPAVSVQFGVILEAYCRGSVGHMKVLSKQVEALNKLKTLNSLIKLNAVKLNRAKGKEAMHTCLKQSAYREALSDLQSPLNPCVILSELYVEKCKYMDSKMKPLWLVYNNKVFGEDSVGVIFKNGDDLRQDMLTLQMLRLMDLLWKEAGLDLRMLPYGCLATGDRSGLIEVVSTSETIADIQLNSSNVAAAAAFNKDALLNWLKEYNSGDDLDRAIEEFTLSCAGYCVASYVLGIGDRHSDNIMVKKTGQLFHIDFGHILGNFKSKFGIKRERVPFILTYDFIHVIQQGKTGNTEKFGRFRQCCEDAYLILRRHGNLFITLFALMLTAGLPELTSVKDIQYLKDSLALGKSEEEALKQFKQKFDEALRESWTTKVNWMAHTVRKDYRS
Sequence (P27986 whole entry partner): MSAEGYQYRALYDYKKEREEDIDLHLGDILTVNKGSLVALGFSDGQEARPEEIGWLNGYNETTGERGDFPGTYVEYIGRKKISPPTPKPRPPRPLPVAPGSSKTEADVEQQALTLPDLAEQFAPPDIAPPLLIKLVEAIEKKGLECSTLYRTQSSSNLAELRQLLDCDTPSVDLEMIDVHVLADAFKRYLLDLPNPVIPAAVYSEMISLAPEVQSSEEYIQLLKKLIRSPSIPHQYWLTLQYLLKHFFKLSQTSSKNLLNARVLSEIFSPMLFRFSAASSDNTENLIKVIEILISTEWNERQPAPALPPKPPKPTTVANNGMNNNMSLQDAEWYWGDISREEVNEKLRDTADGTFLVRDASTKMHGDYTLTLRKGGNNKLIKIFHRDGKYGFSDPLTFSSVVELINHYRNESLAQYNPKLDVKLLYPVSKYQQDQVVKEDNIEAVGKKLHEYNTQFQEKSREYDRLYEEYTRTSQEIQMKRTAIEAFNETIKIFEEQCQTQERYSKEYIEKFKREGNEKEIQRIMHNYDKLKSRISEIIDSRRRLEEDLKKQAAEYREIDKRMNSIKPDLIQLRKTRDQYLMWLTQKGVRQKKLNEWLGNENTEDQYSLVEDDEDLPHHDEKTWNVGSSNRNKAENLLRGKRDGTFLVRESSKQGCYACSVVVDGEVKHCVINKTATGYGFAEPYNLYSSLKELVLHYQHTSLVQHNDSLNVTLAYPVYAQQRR
outcome-measure: IC50

[in] Item under review: C[C@H](Nc1ccc2c(c1)SCCn1cc(N3C(=O)OC[C@H]3C(F)F)nc1-2)C(N)=O [Example 62] . Reported IC50?
[out] 102 nM

---

Test: Pharmacokinetic (PK) assay in mice, single intragastric administration
Type: in vivo
Settings: mouse, po, Balb/c male mice, 5 mg/kg, plasma, read-out: Mean residence time MRT
outcome-measure: MRT (h)
Give the number; h is assumed, so skip it.

entry-smiles: C[C@H](Nc1ccc2c(c1)N(C)CCn1cc(N3C(=O)OC[C@H]3C(F)F)nc1-2)C(N)=O
outcome-measure: MRT
measure-unit: h
reported-measurement: 2.2

Please find the next compound below.
[in] Item under review: C[C@H](Nc1ccc2c(c1)SCCn1cc(N3C(=O)OC[C@H]3C(F)F)nc1-2)C(N)=O . Reported MRT?
[out] 2.8

---

Test: PK studies in animals of salt crystal forms, intragastric 30 mg/kg
Assay type: in vivo
Settings: rat, in vivo, po, rats, 30 mg/kg (as free compound), 0.5% HPMC K4M suspension
outcome-measure: AUC(0-t) (ng·h/mL)
Give the number; ng·h/mL is assumed, so skip it.

compound: C[C@H](Nc1ccc2c(c1)OCCn1cc(N3C(=O)SC[C@H]3C(F)F)nc1-2)C(N)=O.O=S(=O)(O)O [crystal form D of sulfate salt]
outcome-measure: AUC(0-t)
reported-measurement: 9420
//
compound: CCS(=O)(=O)O.C[C@H](Nc1ccc2c(c1)OCCn1cc(N3C(=O)SC[C@H]3C(F)F)nc1-2)C(N)=O [crystal form A of ethanesulfonate salt]
outcome-measure: AUC(0-t)
reported-measurement: 10000

Please find the next compound below.
[in] Item under review: CS(=O)(=O)O.C[C@H](Nc1ccc2c(c1)OCCn1cc(N3C(=O)SC[C@H]3C(F)F)nc1-2)C(N)=O [crystal form A of mesylate salt] . Reported AUC(0-t)?
[out] 9840
